target entity: SsuA (alkanesulphonate-binding protein) (Xanthomonas citri, UniProt A0AAI7ZHA1)
Construct: mature periplasmic protein without the 42-residue signal peptide (972 bp amplicon), pET28a N-terminal His6 tag with thrombin site, tag cut with thrombin; expressed in E. coli BL21(DE3); one molecule per asymmetric unit
Sequence (A0AAI7ZHA1 entry or part of it): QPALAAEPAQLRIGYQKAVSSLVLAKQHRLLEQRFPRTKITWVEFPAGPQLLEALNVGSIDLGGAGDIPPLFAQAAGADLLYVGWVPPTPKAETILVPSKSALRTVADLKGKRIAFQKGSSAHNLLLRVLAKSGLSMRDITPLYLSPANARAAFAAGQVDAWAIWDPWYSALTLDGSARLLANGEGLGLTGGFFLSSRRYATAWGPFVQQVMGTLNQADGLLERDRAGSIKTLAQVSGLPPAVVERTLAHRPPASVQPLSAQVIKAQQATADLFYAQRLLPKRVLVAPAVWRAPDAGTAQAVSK
protocol summary: thermal shift assay, SYPRO orange
conditions: 5 mM ligand, 6 µM SsuA, 20 mM Tris pH 7.4, 50 mM NaCl

{"entry smiles": "O=S(=O)(O)CCN1CCN(CCO)CC1", "unit symbol": "°C", "Tm (unbound form 39.5 °C)": 45.8}
{"entry smiles": "O=S(=O)(O)CCNC1CCCCC1", "unit symbol": "°C", "Tm (unbound form 39.5 °C)": 43.5}
{"entry smiles": "O=S(=O)(O)CCCN1CCOCC1", "unit symbol": "°C", "Tm (unbound form 39.5 °C)": 51}
{"entry smiles": "O=S(=O)(O)CCN1CCOCC1", "unit symbol": "°C", "Tm (unbound form 39.5 °C)": 47.1}
